molecular target: hVR1 (Homo sapiens, UniProt Q8NER1); construct: expressed in transfected cells; host or cells: CHO K1 cells (ECACC), stably transfected; experiment: Functional test on hVR1 after pH stimulus; assay type: cell-based, human being; set-up: key: agonist / partial agonist / no effect: AG=agonist; pAG=partial agonist; NE=no effect
Sequence (Q8NER1 whole entry): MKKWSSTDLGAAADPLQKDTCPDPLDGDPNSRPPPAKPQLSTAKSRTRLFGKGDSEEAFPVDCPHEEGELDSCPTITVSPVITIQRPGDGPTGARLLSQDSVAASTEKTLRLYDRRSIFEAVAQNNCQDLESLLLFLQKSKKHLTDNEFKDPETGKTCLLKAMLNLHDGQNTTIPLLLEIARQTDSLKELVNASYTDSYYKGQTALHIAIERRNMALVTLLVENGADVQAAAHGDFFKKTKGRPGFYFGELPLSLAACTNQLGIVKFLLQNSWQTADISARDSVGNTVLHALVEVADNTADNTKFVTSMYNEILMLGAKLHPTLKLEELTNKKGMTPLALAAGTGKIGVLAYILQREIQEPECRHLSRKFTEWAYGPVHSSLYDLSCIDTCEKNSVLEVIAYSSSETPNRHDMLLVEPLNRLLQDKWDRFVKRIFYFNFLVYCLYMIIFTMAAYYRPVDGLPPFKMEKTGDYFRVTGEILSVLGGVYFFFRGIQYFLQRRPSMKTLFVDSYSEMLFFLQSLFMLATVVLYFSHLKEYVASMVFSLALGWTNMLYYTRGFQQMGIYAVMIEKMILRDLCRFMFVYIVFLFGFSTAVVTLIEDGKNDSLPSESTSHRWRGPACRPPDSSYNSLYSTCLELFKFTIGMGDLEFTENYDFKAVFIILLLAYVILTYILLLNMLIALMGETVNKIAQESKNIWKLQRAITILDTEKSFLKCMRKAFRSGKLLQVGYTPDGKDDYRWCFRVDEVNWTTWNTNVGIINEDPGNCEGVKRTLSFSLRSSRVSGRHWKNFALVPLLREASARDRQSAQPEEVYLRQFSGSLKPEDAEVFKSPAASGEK
READOUT TYPE: IC50 (human being) hVR1, pH: agonist / partial agonist / no effect

Solved entries:
1) CC(C(=O)NCc1cc(C(C)(C)C)nn1-c1cccc(Cl)c1)c1ccc2c(c1)OCCCO2 (stereo not drawn) [Example 15]; pAG
2) CC(C)(C)c1cc(CNC(=O)Nc2cccc3ncccc23)n(-c2cccc(Cl)c2)n1 [Example 111]; AG
3) CC(C(=O)NCc1cc(C(C)(C)C)nn1-c1cccc(Cl)c1)c1ccc2cc(O)ccc2c1 (stereo not drawn) [Example 49]; AG
4) CC(C(=O)NCc1cc(C(C)(C)C)nn1-c1cccc(Cl)c1)c1cccc2ncccc12 (stereo not drawn) [Example 70]; AG
5) O=C(NCc1cc(C(F)(F)F)nn1-c1cccc(Cl)c1)Nc1ccc2ncsc2c1 [Example 96]; pAG
6) CC(C(=O)NCc1cc(C(F)(F)F)nn1-c1cccc(Cl)c1)c1ccc2cc(O)ccc2c1 (stereo not drawn) [Example 50]; pAG
7) CC(C)(C)c1cc(CNC(=O)Nc2cccc3cnccc23)n(-c2cccc(Cl)c2)n1 [Example 109]; pAG
8) CC(C(=O)NCc1cc(C(F)(F)F)nn1-c1cccc(Cl)c1)c1ccc2[nH]ccc2c1 (stereo not drawn) [Example 31]; pAG

Kindly consider the entry below.
Indicate the recorded IC50 (human being) hVR1, pH: agonist / partial agonist / no effect value for this molecule: CC(C(=O)NCc1cc(C(F)(F)F)nn1-c1cccc(Cl)c1)c1ccc2[nH]ncc2c1 (stereo not drawn) [Example 35]
pAG
